# testedOn: UniProt Q14973
# Sequence (Q14973 whole entry): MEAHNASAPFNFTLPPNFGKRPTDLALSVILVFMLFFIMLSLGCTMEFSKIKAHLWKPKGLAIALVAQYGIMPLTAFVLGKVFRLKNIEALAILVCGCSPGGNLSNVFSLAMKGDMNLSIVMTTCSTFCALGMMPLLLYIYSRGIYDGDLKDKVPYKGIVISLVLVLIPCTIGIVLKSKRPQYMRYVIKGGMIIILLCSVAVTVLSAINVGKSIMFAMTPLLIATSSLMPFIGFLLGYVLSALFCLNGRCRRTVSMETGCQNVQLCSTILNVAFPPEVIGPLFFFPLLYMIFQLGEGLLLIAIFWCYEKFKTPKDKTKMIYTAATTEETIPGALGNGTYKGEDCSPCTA
# procedureSummary: Screening taurocholate uptake assay (96-well, [14C]taurocholate, 10 µM drug)
# particulars: screen, 10 µM drug, taurocholate uptake
The entries below come with measured B-score functional assay values attached.
measuredEndpoint: B-score functional assay

compound | testedOn | measuredValue
COC(=O)C1=C(C)NC(C)=C(C(=O)O[C@@H]2CCCN(Cc3ccccc3)C2)[C@@H]1c1cccc([N+](=O)[O-])c1.Cl (racemic) [Benidipine hydrochloride] | UniProt Q14973 | -0.759
C=C1C[C@H]2[C@@H]3C=C(C)C4=CC(=O)CC[C@]4(C)[C@H]3CC[C@]2(C)[C@@]1(OC(C)=O)C(C)=O [Melengestrol acetate] | UniProt Q14973 | -2.447
CCOC(=O)C1=C[C@]2(CC)CCCN3CCc4c(n1c1ccccc41)[C@@H]32 [Vinpocetine] | UniProt Q14973 | 2.672
